- target: D(2) dopamine receptor (Rattus norvegicus)
- assayNotes: Dopamine D2 agonistic activity (2 mg/kg) as plasma prolactin level in reserpinized rats
- Type: functional, organism-based
readoutName: PRL

Any idea what PRL was measured for CCCN(CCC)CCc1cccc(NS(C)(=O)=O)c1 ?
12.6 ng/mL

Any idea what PRL was measured for CCCN(CCC)CCc1cccc(NC(=O)C(F)(F)F)c1 ?
36.8 ng/mL

Any idea what PRL was measured for CCCN(CCC)CCc1cccc2[nH]ccc12 ?
5 ng/mL

Any idea what PRL was measured for CCCN(CCC)C1CCc2ccc(NS(C)(=O)=O)cc2C1 (stereo not drawn) ?
28.3 ng/mL

Any idea what PRL was measured for CCCN(CCC)CCc1cccc(NC(C)=O)c1 ?
36.9 ng/mL

Any idea what PRL was measured for CCCN(CCC)C1CCc2cc3cc[nH]c3cc2C1 (stereo not drawn) ?
30.6 ng/mL

Any idea what PRL was measured for CCCN(CCC)C1CCc2ccc(NC(C)=O)cc2C1 (stereo not drawn) ?
38.9 ng/mL

Any idea what PRL was measured for CCCN(CCC)CCc1ccc2cc[nH]c2c1 ?
51.2 ng/mL

* * *

- target: D(2) dopamine receptor (Rattus norvegicus)
- assayNotes: Dopamine D2 agonistic activity (2 mg/kg) as percent change in prolactin level in reserpinized rats
- Type: functional, organism-based
Each entry below carries its recorded Change.
Field format: number, assumed %, no unit text.

Any idea what Change was measured for CCCN(CCC)CCc1ccc2cc[nH]c2c1 ?
0

Any idea what Change was measured for CCCN(CCC)C1CCc2cc3cc[nH]c3cc2C1 (stereo not drawn) ?
-37

Any idea what Change was measured for CCCN(CCC)C1CCc2ccc(NS(C)(=O)=O)cc2C1 (stereo not drawn) ?
-41

Any idea what Change was measured for CCCN(CCC)C1CCc2ccc(NC(C)=O)cc2C1 (stereo not drawn) ?
-19

Any idea what Change was measured for CCCN(CCC)CCc1cccc(NC(C)=O)c1 ?
-19

Any idea what Change was measured for CCCN(CCC)CCc1cccc(NC(=O)C(F)(F)F)c1 ?
-21

Any idea what Change was measured for CCCN(CCC)CCc1cccc2[nH]ccc12 ?
-69

---
Any idea what Change was measured for CCCN(CCC)CCc1cccc(NS(C)(=O)=O)c1 ?
-76
